src = patent US20230174523A1

TARGET_ENTITY: TRAP1 enzyme (Homo sapiens, UniProt Q12931)
TEST: ADP Glo assay of TRAP1 ATPase activity
Assay type: biochemical
EXPERIMENTAL_CONTEXT: TRAP1 ATPase activation, 150 nM Trap1, 20 μM ATP, geometric mean; read-out: ADP GLO DRC: GeoMean EC50
READOUT: EC50

In the examples that follow, each entry is paired with its recorded EC50.
COc1ccc(NC(=O)c2ccc3ncsc3c2)cc1S(=O)(=O)Nc1c(C)cccc1C [Compound 1233]
10 to 20 µM
COc1cc(C#N)cc(C(=O)Nc2ccc(OC)c(S(=O)(=O)Nc3c(C)cccc3C)c2)c1 [Compound 1090]
< 10 µM
COc1ccc(NC(=O)c2cc(-c3ccccc3)no2)cc1S(=O)(=O)Nc1c(C)cccc1C [Compound 1229]
< 10 µM
COc1ccc(NC(=O)c2cnn(-c3ccccc3)c2)cc1S(=O)(=O)Nc1c(C)cccc1C [Compound 1292]
10 to 20 µM
CCS(=O)(=O)c1ccc(OC)c(C(=O)Nc2ccc(OC)c(S(=O)(=O)Nc3c(C)cccc3C)c2)c1 [Compound 1254]
20 to 100 µM
COc1ccc(NC(=O)c2ccnn2-c2ccccc2)cc1S(=O)(=O)Nc1c(C)cccc1C [Compound 1061]
10 to 20 µM
COc1ccc(NC(=O)c2ccc3sc(C)nc3c2)cc1S(=O)(=O)Nc1c(C)cccc1C [Compound 1269]
10 to 20 µM
COc1ccc(NC(=O)c2ccc(-c3ccccn3)s2)cc1S(=O)(=O)Nc1c(C)cccc1C [Compound 1152]
< 10 µM
COc1ccc(NC(=O)c2sc(Br)nc2C)cc1S(=O)(=O)Nc1c(C)cccc1C [Compound 1115]
10 to 20 µM
COc1ccc(NC(=O)c2ncc(-c3ccccc3)o2)cc1S(=O)(=O)Nc1c(C)cccc1C#N [Compound 1357]
10 to 20 µM

Value lookup for EC50; key = Cc1nc2cc(C(=O)Nc3ccc(F)c(S(=O)(=O)Nc4ccc(Cl)cc4)c3)ccc2n1-c1ccccc1 [Compound 735]
< 10 µM

Value lookup for EC50; key = COc1ccc(NC(=O)c2ccc3ncccc3c2)cc1S(=O)(=O)Nc1c(C)cccc1C [Compound 1241]
10 to 20 µM

Value lookup for EC50; key = COc1ccc(NC(=O)c2ncc(-c3ccccc3)o2)cc1S(=O)(=O)Nc1c(C)cc(C)nc1C [Compound 1575]
20 to 100 µM

Value lookup for EC50; key = COc1ccc(NC(=O)c2ccc3nc(C)sc3c2)cc1S(=O)(=O)Nc1c(C)cccc1C [Compound 1231]
10 to 20 µM

Value lookup for EC50; key = COc1ccc(NC(=O)c2cccc(-c3csc(C)n3)c2)cc1S(=O)(=O)Nc1c(C)cccc1C [Compound 1290]
< 10 µM

Value lookup for EC50; key = COc1ccc(NC(=O)c2cnc(-c3ccccc3)s2)cc1S(=O)(=O)Nc1c(C)cccc1C [Compound 467]
< 10 µM

###

TARGET_ENTITY: TRAP1 enzyme (Homo sapiens, UniProt Q12931)
TEST: Malachite green phosphate assay of TRAP1 ATPase activity
Type: biochemical
EXPERIMENTAL_CONTEXT: TRAP1 ATPase activation, 150 nM Trap1, 20 μM ATP, geometric mean; read-out: Malachite Green Fluor DRC: GeoMean EC50
Listed here are compounds together with their documented EC50.

In the examples that follow, each entry is paired with its recorded EC50.
NCCCCCCOc1ccc(NC(=O)c2cnc[nH]2)cc1S(=O)(=O)Nc1ccc(Br)cc1 [Compound 356]
20 to 100 µM
COc1ccc(NC(=O)c2ncco2)cc1S(=O)(=O)Nc1ccc(Br)cc1 [Compound 172]
< 10 µM

Request - read-out EC50 | tested on TRAP1 enzyme (Homo sapiens, UniProt Q12931) | compound COc1ccc(NC(=O)c2oc(-c3ccccc3)nc2C)cc1S(=O)(=O)Nc1ccc(Cl)cc1 [Compound 488]
10 to 20 µM

Request - read-out EC50 | tested on TRAP1 enzyme (Homo sapiens, UniProt Q12931) | compound CCc1ccc(NC(=O)c2cnc(C(F)(F)F)[nH]2)cc1S(=O)(=O)Nc1ccc(C)cc1 [Compound 270]
10 to 20 µM

Request - read-out EC50 | tested on TRAP1 enzyme (Homo sapiens, UniProt Q12931) | compound Cc1ccc2c(c1)OCCN2S(=O)(=O)c1cccc(NC(=O)c2ncco2)c1 [Compound 324]
20 to 100 µM

Request - read-out EC50 | tested on TRAP1 enzyme (Homo sapiens, UniProt Q12931) | compound COc1ccc(NC(=O)c2cnc(-c3ccccc3)[nH]2)cc1S(=O)(=O)Nc1ccccc1C [Compound 201]
10 to 20 µM

Request - read-out EC50 | tested on TRAP1 enzyme (Homo sapiens, UniProt Q12931) | compound O=C(Nc1ccc(F)c(S(=O)(=O)Nc2ccc(Cl)cc2)c1)c1cc(Cl)ncc1C(F)(F)F [Compound 743]
20 to 100 µM

Request - read-out EC50 | tested on TRAP1 enzyme (Homo sapiens, UniProt Q12931) | compound Cc1ncoc1C(=O)Nc1cccc(S(=O)(=O)N2CCC(C)(C)c3cc(Cl)ccc32)c1 [Compound 517]
10 to 20 µM

Request - read-out EC50 | tested on TRAP1 enzyme (Homo sapiens, UniProt Q12931) | compound CCc1ccc(NC(=O)c2ncn(C)n2)cc1S(=O)(=O)Nc1ccc(Cl)cc1 [Compound 575]
20 to 100 µM

Request - read-out EC50 | tested on TRAP1 enzyme (Homo sapiens, UniProt Q12931) | compound O=C(Nc1ccc(F)c(S(=O)(=O)Nc2ccc(Br)cc2)c1)c1cnc(-c2ccccc2)[nH]1 [Compound 168]
10 to 20 µM

Request - read-out EC50 | tested on TRAP1 enzyme (Homo sapiens, UniProt Q12931) | compound COc1ccc(NC(=O)c2cnco2)cc1S(=O)(=O)Nc1ccc(Br)cc1 [Compound 91]
20 to 100 µM

Request - read-out EC50 | tested on TRAP1 enzyme (Homo sapiens, UniProt Q12931) | compound COc1ccc(NC(=O)c2cnc(-c3ccc(Cl)cc3)[nH]2)cc1S(=O)(=O)Nc1ccc(Br)cc1 [Compound 415]
< 10 µM

Request - read-out EC50 | tested on TRAP1 enzyme (Homo sapiens, UniProt Q12931) | compound CCCN(c1ccc(Br)cc1)S(=O)(=O)c1cccc(NC(=O)c2ncco2)c1 [Compound 303]
10 to 20 µM

Request - read-out EC50 | tested on TRAP1 enzyme (Homo sapiens, UniProt Q12931) | compound COc1ccc(NC(=O)c2oc(C(F)(F)F)nc2C)cc1S(=O)(=O)Nc1ccc(Br)cc1 [Compound 315]
10 to 20 µM

Request - read-out EC50 | tested on TRAP1 enzyme (Homo sapiens, UniProt Q12931) | compound COc1ccc(NC(=O)c2cnc(-c3ccccc3)[nH]2)cc1S(=O)(=O)N1Cc2ccc(F)cc2C1 [Compound 200]
< 10 µM

Request - read-out EC50 | tested on TRAP1 enzyme (Homo sapiens, UniProt Q12931) | compound O=C(Nc1ccc(F)c(S(=O)(=O)Nc2ccc(F)cc2)c1)c1ncco1 [Compound 314]
20 to 100 µM

###

TARGET_ENTITY: UniProt:Q12931
TEST: ADP Glo assay of TRAP1 ATPase activity
Type: biochemical
EXPERIMENTAL_CONTEXT: read-out: ADP GLO DRC: Mean Emax
READOUT: Emax

In the examples that follow, each entry is paired with its recorded Emax.
COc1ccc(NC(=O)c2nc(C(C)C)cs2)cc1S(=O)(=O)Nc1c(C)cccc1C
160 to 199%
COc1ccc(NC(=O)c2ccc3ocnc3c2)cc1S(=O)(=O)Nc1c(C)cccc1C
123 to 159%
COc1ccc(NC(=O)c2cccc3ccn(C)c23)cc1S(=O)(=O)Nc1c(C)cccc1C
200 to 300%
COc1ccc(NC(=O)c2ncoc2C(C)C)cc1S(=O)(=O)Nc1ccc(Cl)cc1
123 to 159%
Cc1ccc(Sc2ncccc2C(=O)Nc2ccc(F)c(S(=O)(=O)Nc3ccc(Cl)cc3)c2)cc1
123 to 159%

Value lookup for Emax; key = COc1ccc(NC(=O)c2cccc3ncccc23)cc1S(=O)(=O)Nc1c(C)cccc1C
160 to 199%

Value lookup for Emax; key = COc1ccc(NC(=O)c2cnc(Cl)s2)cc1S(=O)(=O)Nc1c(C)cccc1C
200 to 300%

Value lookup for Emax; key = COc1ccc(NC(=O)c2ccc3c(c2)ncn3C)cc1S(=O)(=O)Nc1c(C)cccc1C
123 to 159%

Value lookup for Emax; key = COc1ccc(NC(=O)c2cccc(-n3nc(C)cc3C)c2)cc1S(=O)(=O)Nc1c(C)cccc1C
160 to 199%

###

TARGET_ENTITY: TRAP1 enzyme (Homo sapiens, UniProt Q12931)
Sequence (Q12931 60-704): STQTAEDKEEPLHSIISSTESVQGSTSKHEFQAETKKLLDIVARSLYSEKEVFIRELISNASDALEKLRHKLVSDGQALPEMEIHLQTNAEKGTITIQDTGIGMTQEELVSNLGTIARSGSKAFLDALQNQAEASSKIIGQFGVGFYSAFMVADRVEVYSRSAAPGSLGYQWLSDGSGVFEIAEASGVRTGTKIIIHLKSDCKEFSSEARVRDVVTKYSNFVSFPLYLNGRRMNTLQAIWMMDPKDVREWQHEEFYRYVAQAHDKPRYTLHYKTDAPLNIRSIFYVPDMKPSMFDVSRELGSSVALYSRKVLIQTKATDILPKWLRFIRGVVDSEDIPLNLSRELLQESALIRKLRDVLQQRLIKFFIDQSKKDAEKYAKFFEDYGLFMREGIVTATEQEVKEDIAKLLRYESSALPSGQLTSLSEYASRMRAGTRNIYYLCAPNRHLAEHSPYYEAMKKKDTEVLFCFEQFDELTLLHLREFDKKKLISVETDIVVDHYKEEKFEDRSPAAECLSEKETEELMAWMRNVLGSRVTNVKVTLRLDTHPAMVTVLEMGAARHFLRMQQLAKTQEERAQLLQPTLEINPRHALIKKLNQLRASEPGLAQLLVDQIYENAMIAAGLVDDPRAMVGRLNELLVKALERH
TEST: ADP Glo assay of TRAP1 ATPase activity
Assay type: biochemical
EXPERIMENTAL_CONTEXT: read-out: ADP GLO DRC: Mean Emax
Listed here are molecules together with their documented Emax.

COc1ccc(NC(=O)c2ccc3cnn(C)c3c2)cc1S(=O)(=O)Nc1c(C)cccc1C [Compound 1370]
> 300%
COc1ccc(NC(=O)c2ccc(-c3ccccc3C(F)(F)F)o2)cc1S(=O)(=O)Nc1c(C)cccc1C [Compound 1162]
123 to 159%
COc1ccc(NC(=O)c2ccc(-c3ccc(F)cc3)cc2F)cc1S(=O)(=O)Nc1c(C)cccc1C [Compound 1142]
123 to 159%
Cc1nccc(C(F)(F)F)c1C(=O)Nc1ccc(F)c(S(=O)(=O)Nc2ccc(Cl)cc2)c1 [Compound 734]
123 to 159%
COc1ccc(NC(=O)c2cocn2)cc1S(=O)(=O)Nc1ccc(Cl)cc1 [Compound 1961]
160 to 199%

Kindly consider the entry below.
Request - read-out Emax | tested on TRAP1 enzyme (Homo sapiens, UniProt Q12931) | molecule COc1ccc(NC(=O)c2cc(C3CC3)on2)cc1S(=O)(=O)Nc1c(C)cccc1C [Compound 1031]
200 to 300%
